Tested on: Hepatitis B virus
protocol.text: Antiviral activity against HBV infected in human HepG2(2.2.15) cells assessed as decrease in HBV genome replication after 5 days by qPCR method
Type: functional, cell-based
assay.conditions: HepG2 2.2.15, 120 h
This section presents molecules with their documented EC50 values.

[[record]]
molecule = "CC1=C(C(=O)O)C(c2ccc(F)cc2Cl)N=C(c2nccs2)N1 (centres undefined)"
readout_label = "EC50"
result = "> 1000 nM"


// EC50 lookup, key: COC(=O)C1=C(CN2CCCC[C@H]2C(=O)O)NC(c2nccs2)=N[C@H]1c1ccc(F)cc1Cl > 1000 nM

// EC50 lookup, key: CC(C)(C)OC(=O)C1=C(CN2CCOC[C@H]2C(=O)O)NC(c2nccs2)=N[C@H]1c1ccc(F)cc1Cl > 100 nM

// EC50 lookup, key: COC(=O)C1=C(CN2CCN(C(C)=O)C[C@H]2C(=O)O)NC(c2nccs2)=N[C@H]1c1ccc(F)cc1Cl > 1000 nM

###

This section presents compounds with their documented Ratio CC50/EC50 values.
protocol.text: Selectivity index, ratio of CC50 for HBV infected human HepDE19 cells to EC50 for HBV infected in human HepG2(2.2.15) cells

Reference set (5 entries):
[[record]]
compound = "COC(=O)C1=C(CN2CCOC[C@H]2C(=O)O)NC(c2nc(C(F)(F)F)cs2)=N[C@H]1c1ccc(F)cc1Cl"
result = ">33333"

[[record]]
compound = "COC(=O)C1=C(CN2CCOC[C@H]2C(=O)O)NC(c2ncoc2C)=N[C@H]1c1ccc(F)cc1Cl"
result = ">7143"

[[record]]
compound = "COC(=O)C1=C(CN2CCOC[C@H]2C(=O)O)NC(c2nc(C)cs2)=N[C@H]1c1ccc(F)cc1Cl"
result = ">14826"

[[record]]
compound = "CCCOC(=O)C1=C(CN2CCOC[C@H]2C(=O)O)NC(c2nccs2)=N[C@H]1c1ccc(F)cc1Cl"
result = ">8333"

[[record]]
compound = "COC(=O)C1=C(CN2CCOC(C(=O)O)C2)NC(c2nccs2)=N[C@H]1c1ccc(F)cc1Cl (some centres undefined)"
result = ">300"


Would you kindly look at the next entry?
// Ratio CC50/EC50 lookup, key: COC(=O)C1=C(CN2CCOC[C@H]2C(=O)O)NC(c2nccs2)=N[C@H]1c1cccc(F)c1Cl >25000

###

protocol.text: Selectivity index, ratio of CC50 for HBV infected human HepDE19 cells to EC50 for HBV infected in human HepG2(2.2.15) cells
readout.label: Ratio CC50/EC50

Reference set (2 entries):
[[record]]
structure_notation = "COC(=O)C1=C(CN2CCOC[C@@H]2C(=O)O)NC(c2nccs2)=N[C@H]1c1ccc(F)cc1Cl"
readout_label = "Ratio CC50/EC50"
result = ">1266"

[[record]]
structure_notation = "CCOC(=O)C1=C(CN2CCOC[C@H]2C(=O)O)NC(c2nccs2)=N[C@H]1c1ccc(F)cc1C"
readout_label = "Ratio CC50/EC50"
result = ">33333"


Would you kindly look at the next entry?
// Ratio CC50/EC50 lookup, key: COC(=O)C1=C(CN2CCOC[C@H]2CCC(=O)O)NC(c2nccs2)=N[C@H]1c1ccc(F)cc1Cl >667
